Reference for the values: ChEMBL document CHEMBL3244327

Test system: Rattus norvegicus
Assay: Narcotic antagonist activity in sc dosed rat assessed as dose required for 50% antagonist activity co-treated with meperidine
Assay type: functional

>  <molecule>
CC(C)=CCN1CC[C@@]2(C)c3cc(O)ccc3C[C@@H]1[C@@H]2C (relative stereo)

>  <tested_system>
Rattus norvegicus

>  <unit_info>
mg/kg

>  <comparative_sign>
=

>  <AD50>
3.9

$$$$
>  <molecule>
C=CCN1CC(C)[C@]2(CC)CC1Cc1ccc(O)cc12 (stereo partly drawn)

>  <tested_system>
Rattus norvegicus

>  <unit_info>
mg/kg

>  <comparative_sign>
=

>  <AD50>
0.037

$$$$
>  <molecule>
C[C@H]1C2Cc3ccc(O)cc3[C@@]1(C)CCN2Cc1ccccc1

>  <tested_system>
Rattus norvegicus

>  <unit_info>
mg/kg

>  <comparative_sign>
=

>  <AD50>
1.3

$$$$
>  <molecule>
CC[C@@]12CCN(CC=C(C)C)C(Cc3ccc(O)cc31)[C@@H]2C

>  <tested_system>
Rattus norvegicus

>  <unit_info>
mg/kg

>  <comparative_sign>
=

>  <AD50>
10.9

$$$$
>  <molecule>
CCC1CN(C)C2Cc3ccc(O)cc3[C@@]1(C)C2 (stereo partly drawn)

>  <tested_system>
Rattus norvegicus

>  <unit_info>
mg/kg

>  <comparative_sign>
=

>  <AD50>
9

$$$$
>  <molecule>
CC[C@@]12CC(Cc3ccc(O)cc31)N(CC=C(C)C)CC2C (stereo partly drawn)

>  <tested_system>
Rattus norvegicus

>  <unit_info>
mg/kg

>  <comparative_sign>
>

>  <AD50>
40

$$$$
>  <molecule>
CC(C)=CCN1C[C@@H](C)[C@]2(C)C[C@@H]1Cc1ccc(O)cc12

>  <tested_system>
Rattus norvegicus

>  <unit_info>
mg/kg

>  <comparative_sign>
=

>  <AD50>
2.8

$$$$
>  <molecule>
C=CCN1CC[C@]2(CC)c3cc(O)ccc3CC1[C@@H]2C

>  <tested_system>
Rattus norvegicus

>  <unit_info>
mg/kg

>  <comparative_sign>
=

>  <AD50>
0.064

$$$$
